- PROTOCOL_DESCRIPTION: probe aLefty2 binding to arrayed compounds – biochemical, biotinylated probe, 635/667 nm fluorescence, primary screen (AID 1094);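 further: score merges spot fluorescence near 667 nm with spot signal-to-noise ratio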
- PARTICULARS: small-molecule microarray, higher = more signal
The threshold is inclusive: composite z-score of exactly 0.1 counts as condition met; values below receive condition not met.

COMPOUND: CN1C(=O)[C@@H]2[C@@H](CC(COc3ccccc3)=C3[C@@H](CCc4ccccc4)OB(O)C[C@@H]32)C1=O
CLASSIFICATION: condition not met

COMPOUND: C=C1C(=O)C=C2CN(C(=O)c3ccccc3)[C@@](Cc3ccc(OC)cc3)(C(=O)OC)[C@@H]12
CLASSIFICATION: condition met

COMPOUND: C=CCOC(=O)[C@@H]1[C@H]2C(=O)O[C@H](c3ccccc3)[C@H](c3ccccc3)N2[C@H](c2ccc(OCCOC(=O)[C@H]3C[C@H]4C(=O)N5CCC[C@H]5C(=O)N4[C@H]3c3cccc(OCCO)c3)cc2)[C@@]12C(=O)Nc1ccc(I)cc12
CLASSIFICATION: condition not met

COMPOUND: O=C1C2C=CC(C(O)C3CCCCC3)N(n3cnnc3)C2C(=O)N1Cc1ccccc1 (configuration not stated)
CLASSIFICATION: condition met

COMPOUND: C=C(CCCC)/C(=C/C[C@H](OC(=O)c1ccncc1)c1ccc(OCCO)cc1)c1cnc2ccccc2c1
CLASSIFICATION: condition not met

COMPOUND: COC(=O)C(CC#Cc1ccc2c(c1)[C@]1(C(=O)N2)[C@H](c2ccc(OCCO)cc2)N2[C@H](c3ccccc3)[C@H](c3ccccc3)OC(=O)[C@H]2[C@@H]1C(=O)N1CCCCCCC1)C(=O)OC
CLASSIFICATION: condition met

COMPOUND: [N-]=[N+]=Nc1ccccc1C[C@]1(C(=O)N2CCOCC2)N=C(c2ccc(OCCCO)cc2)O[C@H]1c1ccccc1N=[N+]=[N-]
CLASSIFICATION: condition met

COMPOUND: COCCOC(=O)N1C(=O)[C@@]2(c3cc(C#CCNC(N)=O)ccc31)[C@H](C(=O)Nc1nc3ccccc3s1)[C@H]1C(=O)O[C@H](c3ccccc3)[C@H](c3ccccc3)N1[C@@H]2c1ccccc1OCCO
CLASSIFICATION: condition met

COMPOUND: CN(C)C(=O)[C@@]1(Cc2ccccc2CN=[N+]=[N-])COC(c2ccc(OCCCO)cc2)=N1
CLASSIFICATION: condition not met

COMPOUND: CC(C)C[C@@H]1NC(=O)[C@@]23C(=O)N[C@@H](Cc4ccccc4)C2[C@H](C)[C@@]2(C)O[C@H]2C3/C=C/C/C=C\CNC(=O)CNC1=O (some centres not stated)
CLASSIFICATION: condition not met

COMPOUND: COc1ccc([Si](C)(C)[C@H]2[C@H](CC(=O)N3Cc4ccccc4C[C@H]3CO)O[C@@]3(C(=O)N(C)c4c(Br)cc(C)cc43)[C@@H]2C)cc1
CLASSIFICATION: condition not met

COMPOUND: COCCCN1C(=O)[C@@]2(c3ccc([N+](=O)[O-])cc3)CC(=O)N(CC34CC5CC(CC(C5)C3)C4)[C@@H]2c2ccc(CO)cc21
CLASSIFICATION: condition not met

COMPOUND: C=CCC(OC(C)=O)[C@@H]1[C@@H](N(Cc2ccc(-c3ccccc3)cc2)C(=O)c2cccc3ccccc23)c2cc(OCCCO)ccc2N1C(=O)Cc1ccc(OC)cc1 (some centres not stated)
CLASSIFICATION: condition not met

COMPOUND: C=CC[C@@]12N=C(c3ccc(OCCCO)cc3)O[C@@H]1c1ccccc1N(CCC)C2=O
CLASSIFICATION: condition met

COMPOUND: COC(=O)c1cccc([C@H]2OC(=CC(=O)OC(C)C)C[C@@H](c3cccc(C(=O)OC)c3)O2)c1
CLASSIFICATION: condition met

COMPOUND: C=CCOC(=O)[C@H]1[C@@H]2C(=O)O[C@@H](c3ccccc3)[C@@H](c3ccccc3)N2[C@@H](c2ccc(OCCOC(=O)[C@@H]3C[C@@H]4C(=O)N[C@@H](CCCCNC(C)=O)C(=O)N4[C@@H]3c3cccc(OCCO)c3)cc2)[C@]12C(=O)Nc1ccccc12
CLASSIFICATION: condition not met

COMPOUND: O=C1N(Cc2ccccc2)c2ccccc2C[C@@]12COC(c1ccc(OCCCO)cc1)=N2
CLASSIFICATION: condition met

COMPOUND: CC(C)C(=C=CC[C@H](O)c1ccccc1OCCO)C[C@H](O)COCc1ccccc1
CLASSIFICATION: condition not met

COMPOUND: O=C1[C@H]2C=C(I)[C@H](C[C@@H]2c2ccccc2)[C@@]12CO2
CLASSIFICATION: condition not met

COMPOUND: COCCOC(=O)N1C(=O)[C@@]2(c3cc(C#CCC(C(=O)OC)C(=O)OC)ccc31)[C@H](C(N)=O)[C@H]1C(=O)O[C@H](c3ccccc3)[C@H](c3ccccc3)N1[C@@H]2c1ccc(O)cc1
CLASSIFICATION: condition met

COMPOUND: COc1ccc([Si](C)(C)[C@H]2[C@H](CC(=O)N3Cc4ccccc4C[C@H]3CO)O[C@@]3(C(=O)N(C)c4ccccc43)[C@@H]2C)cc1
CLASSIFICATION: condition met

COMPOUND: CCOC(=O)C1=C[C@@H](C(C)(C)C)N(S(=O)(=O)c2ccc(C)cc2)[C@H]1c1ccc(C#N)cc1
CLASSIFICATION: condition met

COMPOUND: CN(C)CCCCNC(=O)[C@H]1C[C@H]2C(=O)N3CCC[C@H]3C(=O)N2[C@H]1c1cccc(OCCO)c1
CLASSIFICATION: condition not met

COMPOUND: CCCc1cc2c(n1CCc1ccc(Cl)cc1)C(C)C1CN(C(=O)c3ccccc3)C(C)(C(=O)OC)C21 (configuration not stated)
CLASSIFICATION: condition met

COMPOUND: CC(C)=C1C(=O)C(c2ccccc2)=C2CN3C(=O)N(CCc4ccccc4)C(=O)[C@]3(C)[C@H]21
CLASSIFICATION: condition met

COMPOUND: COC(=O)C(CC#Cc1ccc2c(c1)[C@]1(C(=O)N2)[C@H](c2ccccc2OCCO)N2[C@H](c3ccccc3)[C@H](c3ccccc3)OC(=O)[C@H]2[C@@H]1C(=O)N1CCc2cc(OC)c(OC)cc2C1)C(=O)OC
CLASSIFICATION: condition not met

COMPOUND: CCN(CC)c1ccc(N2CC=CC34O[C@@H]5C=CCCOC(=O)C5[C@H]3C(=O)N(C(C)CO)[C@@H]4C2=O)cc1 (some centres not stated)
CLASSIFICATION: condition not met
